Test: NCI Yeast Anticancer Drug Screen. Data for the rad50 strain (AID 155);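 note: 0% = growth of vehicle-only cultures of the same strain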
Conditions: S. cerevisiae rad50 strain growth inhibition; at 5.0 µM (retest, dose inferred, filed as 0.5)
This is part of a sample that, as a whole, favours compounds with a hit. Of some 79,000 tested, about 15% had one in any assay. The source made the active and inactive calls. Cut-off read from the data, not from the text of the source: active = growth inhibition above about 70%; inactive = the rest. Where a SMILES comes first, the peptide text is derived from it. [ ]: non-standard residue; d: D form. The star is where a group is joined. mTyr = N[CH](Cc1cccc(O)c1)C(=O)O; Cbz = O=C(OCc1ccccc1)*; OBn = c1ccc(CO*)cc1
Hello, when you answer, please use one of the following outcomes: active, inactive

Completed entries (count: 5):
COMPOUND | LABEL CLASS
COC(=O)C(Cc1cccc(O)c1)NC(=O)C(CC(=O)OCc1ccccc1)NC(=O)OCc1ccccc1 (centres undefined) (Cbz-Asp(OBn)-[mTyr]-OMe; configuration not given here) | inactive
CSC(SC)C(SC)SC | inactive
CC(=O)OCC1CC2OC2CC1C (centres undefined) | inactive
CC(C)(C)C1CCC2c3c([nH]c4ccccc34)C3C(=O)N(c4ccc(C(=O)O)cc4)C(=O)C3C2C1 (centres undefined) | active
COc1ccc2[nH]c3ccc4cc[n+](CCN5CCC(C6CCN(CC[n+]7ccc8ccc9[nH]c%10ccc(OC)cc%10c9c8c7)CC6)CC5)cc4c3c2c1 | inactive

Write down the call the test reported for this compound. Item: O=C1OC(=O)C2C(c3ccccc3)=C(c3ccccc3)C(c3ccccc3)=C(c3ccccc3)C12 (centres undefined)
inactive

// param item: `NC(=S)N/N=C1\NC(=O)/C(=C/c2ccc3c(c2)OCO3)S1` ; yields the recorded call
inactive

// outcome(item) with item = `Cc1ccc2cccc(N)c2c1`
inactive

Call for entry `O=[N+]([O-])/C(Cl)=C(/C(Cl)=C(Cl)Cl)N1CCCCC1` :
inactive

----------
Assay: NCI Yeast Anticancer Drug Screen. Data for the cln2 rad14 strain (AID 165);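 note: 0% = growth equal to vehicle treated cultures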
Settings: S. cerevisiae cln2 rad14 strain, at 50.0 µM
Compounds without any hit were thinned out: in the full panel of roughly 79,000, 15% have a hit. Active and inactive are the calls of the source. Cut-off read from the data, not from the text of the source: active = growth inhibition above about 70%; inactive = the rest.
// one of YES = active, NO = inactive, no free text

MOLECULE | LABEL CLASS
Oc1cc(Cc2ccccc2)c(Cc2ccccc2)cc1O | YES
CC12CCC(O)CC1CCC1C2CCC2(C)C(NC(=O)N(CCCl)N=O)CCC12 (stereo not drawn) | NO
O=C(/C=C/C(=N\Nc1ccccc1)c1ccccc1)c1ccccc1 | NO

What is the recorded call for this molecule in the test? `CN(C)CCCSc1c2ccccc2nc2cccc([N+](=O)[O-])c12`
NO

Name the outcome recorded for `O=[N+]([O-])c1ccc(N/N=C/CCCCCCCCCCBr)c([N+](=O)[O-])c1` in the assay.
NO

In this assay, the call recorded for `COc1cc(/C=C/C(=O)c2ccc3ccccc3c2)cc(OC)c1OC` was what?
NO

Call for entry `O=C1C(c2ccccc2)=[N+]([O-])c2cc([N+](=O)[O-])c(/C(Cl)=C/c3ccccc3)cc21` :
NO

----------
Assay: NCI Yeast Anticancer Drug Screen. Data for the sgs1 mgt1 strain (AID 161);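 note: 0% = growth of cultures given vehicle only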
Details: S. cerevisiae sgs1 mgt1 strain, at 50.0 µM, active compounds read high
The panel holds about 79,000 compounds, 15% with a hit somewhere; the sample as a whole holds those more often.
Tag: y if measured growth inhibition is not below 80%, n if it is.

Solved cases (3 shown):
COMPOUND | LABEL CLASS
CC(C)C12CCC3(CCC4C(C)(C(=O)O)CCCC4(C)C3C1)C(CN)C2 (stereo not drawn) | y
CC/C(=C(\CC)c1ccc(O)c(CN(CC)CC)c1)c1ccc(OC)cc1 | y
Cc1ccc(S(=O)(=O)NCCSCCSCCNS(=O)(=O)c2ccc(C)cc2)cc1 | n

Does the compound `CCCCCCCCCSC(=S)N(C)NC(=O)c1ccccn1` have recorded growth inhibition that is 80% or more?
y

Identify whether the reported growth inhibition of the following compound is 80% or greater: `N#Cc1cccc(C[P+](c2ccccc2)(c2ccccc2)c2ccccc2)c1`
n

Determine whether this compound has growth inhibition no lower than 80%: `[O-][n+]1c2c(cc3ccccc31)Cc1ccccc1-2`
n

Given the entry `c1ccc2c(c1)Cc1cc3ccccc3nc1-2` , answer whether its growth inhibition meets or surpasses 80%.
y

Has `NCc1ccccc1-c1c2nc(c(-c3ccccc3CN)c3ccc([nH]3)c(-c3ccccc3CN)c3nc(c(-c4ccccc4CN)c4ccc1[nH]4)C=C3)C=C2` a recorded growth inhibition greater than or equal to 80%?
y

Item `CCOC(=O)C1=C(C)NC(C)=C(C(=O)OCC)C1c1ccc([N+](=O)[O-])s1` with growth inhibition of 80% or above?
y

Is it the case that `O=C1C=CC(=O)c2nc3c(nc21)[nH]c1ccccc13` has growth inhibition reaching or exceeding 80%?
y

Does the compound CCC(CO)Nc1nc2cc(Br)ccc2c2ccc(Br)cc12 (stereo not drawn) have recorded growth inhibition that is 80% or more?
y

Say whether `CN=c1sc2c(n1C)C(=O)c1ccccc1C2=O` shows growth inhibition of 80% or more.
y

----------
Test: NCI Yeast Anticancer Drug Screen. Data for the cln2 rad14 strain (AID 165);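 note: 0% = growth equal to vehicle treated cultures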
Settings: S. cerevisiae cln2 rad14 strain, at 50.0 µM, active compounds read high
This is part of a sample that, as a whole, favours compounds with a hit. Of some 79,000 tested, about 15% had one in any assay.
PARAMETER MEASURED: growth inhibition (%)
Dear colleague, please return just the value in %, with no unit written.

The cases that follow already have their growth inhibition on record.
COMPOUND | growth inhibition (%)
CNc1ccc(F)cc1SSc1cc(F)ccc1NC | 99
Cc1[nH]c2ccccc2c1C(C)CC(O)c1ccccc1 (stereo not given) | 95.8
CCN(CC)CCCCCCNc1cc(C)cc2cccnc12 | 72.8
CC(CC(C#CCN(C)C)N(C)C)CC(C)(C)C (stereo not given) | -7.5
CC(=O)c1c2c(cc3c1CC1(Cc4ccccc4C1=O)C3)CCC2 (stereo not given) | 46.4

Looking up `CC(C)C[P+](c1ccccc1)(c1ccccc1)c1ccccc1` , I see its growth inhibition listed as 49.5

growth inhibition reported for this compound `CC(C)(C)N=C=NC(c1ccccc1)(c1ccccc1)c1ccccc1` : 42.5

Field growth inhibition (entry `Nc1ccc2nc3ccccc3nc2c1` ) reads 74

For this compound ( `CC(C)CCOc1ccc(/C=C\C(=O)O)cc1` ), measured growth inhibition is 93.9

// growth inhibition value for CCCCCNC(=O)C1C(=O)N(CCCCC)C(=O)/C1=N\N (stereo not given) : 79.7

So, `Cc1cc2c(Br)cc(Br)c(O)c2nc1C(=O)c1ccccc1` ? Its growth inhibition was 43.9

Consider Oc1ccc(C2Oc3ccccc3C=C2c2ccccc2)cc1 (stereo not given) . Its measured growth inhibition is -14.8

response.value for `C[N+](C)(C)CCCCCCCCCCC(=O)N/N=C/c1ccc([N+](=O)[O-])o1` (field: growth inhibition) = 32.3

Form: compound = `O=C(O)Cc1cccc(O)c1` ; growth inhibition = 35.1

# growth inhibition of `CC(CCC(=O)O)(c1cc(Br)c(O)c(Br)c1)c1cc(Br)c(O)c(Br)c1` = 92.4

Short answer for `[N-]=[N+]=Nc1c(-c2ccccc2)c(Cl)nc2ccccc12` : growth inhibition was 82.9

The reported growth inhibition of the compound `COc1cccc2c1N[S@](=O)S2` was 30

According to the records, this compound `C=C(C)CCC(=C)C` displays growth inhibition of 29.8

Memo: C=CC1(C)CCC2C(=CCC3C(C)(COC4OC(CO)C(O)C(O)C4O)C(O)CCC23C)C1 (stereo not given) , reported growth inhibition: 91.5

The recorded growth inhibition for entry CC1(C)OC2C(CO)OC(n3ncc(=S)[nH]c3=O)C2O1 (stereo not given) equals -1.95

----------
Assay: NCI Yeast Anticancer Drug Screen. Data for the cln2 rad14 strain (AID 165);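 note: 0% = growth equal to vehicle treated cultures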
Settings: S. cerevisiae cln2 rad14 strain, at 50.0 µM (retest, dose inferred, filed as 5.0)
About 79,000 compounds went through this panel and 15% of them were active in at least one assay; those are over-represented in the sample as a whole. Calls of active or inactive are those of the source. Cut-off read from the data, not from the text of the source: active = growth inhibition above about 70%; inactive = the rest.
Mark one answer only. Choices: yes (1) for active, no (0) for inactive

COMPOUND | LABEL CLASS
O=C1C(Cl)=C(c2ccccc2)C1Cl (stereo not given) | yes (1)

Lab log entry: `Cc1cc2c(C(C)C)c(O)c(O)c(C=Nc3ccc(C(=O)O)cc3)c2c(O)c1-c1c(C)cc2c(C(C)C)c(O)c(O)c(C=Nc3ccc(C(=O)O)cc3)c2c1O` — outcome as called in the assay?
yes (1)

Which outcome did this test record for the compound `Oc1cc(-[n+]2ccc3ccccc3c2)c(O)c2ccccc12` ?
no (0)

Which outcome was assigned to O=C(O)C(c1ccccc1)c1ccc(-c2ccccc2)cc1 (stereo not given) in this test?
yes (1)

Hey, what did the test say about `Oc1ccc2c(c1)Cc1ccccc1-2` ?
yes (1)
